Data provenance: patent US20160130278A1

Test System: human type 1 glycine transporter (GlyT1) (Homo sapiens, UniProt P48067)
Construct: T98G cells (glioma cells) expressing human type 1 glycine transporter (GlyT1) were used
Test Method Notes: Glycine uptake inhibition experiment ([3H]glycine uptake)
Type: cell-based
Assay Context: GlyT1
Readout: IC50 (nM)

[[record]]
compound = "O=C(NC(c1cc(Cl)ccn1)C1(O)CCC(F)(F)CC1)c1ccnc(C(F)(F)F)c1Cl (single isomer, unassigned) [Compound 346]"
measurement_unit = "nM"
measurement = 360


A = O=C(NC(c1cccc(F)c1Cl)[C@]1(O)CC[C@@H](F)CC1)c1cccc(C(F)(F)F)c1F (single isomer, unassigned) [Compound 245]
B = O=C(NC(c1ccc(Cl)nc1)C1(O)CCC(F)(F)CC1)c1nccc(C(F)(F)F)c1Cl (single isomer, unassigned) [Compound 278]
Asked: In terms of reported IC50, does A or B have the smaller number? I would appreciate it if you answered with the label of your choice.
Given back: A
(A: 990 nM, B: 2700 nM)

I = O=C(NC(c1cccc(Cl)c1Cl)C1(O)CCCC1)c1nccc(C(F)(F)F)c1Cl (single isomer, unassigned) [Compound 116]
II = O=C(NC(c1cccc(Cl)c1)C1(O)CCCCC1)c1nccc(C(F)(F)F)c1Cl (stereo not drawn) [Compound 212]
Asked: In terms of reported IC50, does I or II have the smaller number? I would appreciate it if you answered with the label of your choice.
Given back: II

----------
Test System: human type 1 glycine transporter (GlyT1) (Homo sapiens)
Construct: T98G cells (glioma cells) expressing human type 1 glycine transporter (GlyT1) were used
Test Method Notes: Glycine uptake inhibition experiment ([3H]glycine uptake)
Type: cell-based
Assay Context: GlyT1
pIC50: −log10 of the molar value.
Readout: pIC50

[[record]]
compound = "O=C(NC(c1cccc(Cl)c1Cl)C1(O)CCCC1)c1nccc(C(F)(F)F)c1Cl (centres unmarked) [Compound 107]"
measurement = 7.41

[[record]]
compound = "Cc1ccc(C(F)(F)F)c(C(=O)NC(c2cccc(F)c2Cl)[C@]2(O)CC[C@@H](F)CC2)n1 (single isomer, unassigned)"
measurement = 6.09

[[record]]
compound = "O=C(NC(c1ccccc1Cl)[C@]1(O)CC[C@@H](F)CC1)c1ccnc(C(F)(F)F)c1Cl (single isomer, unassigned)"
measurement = 6.77

[[record]]
compound = "CCn1cc(-c2cccc(C(NC(=O)c3cc(Cl)ccc3Cl)C3(O)CCC(F)(F)CC3)c2)cn1 (centres unmarked) [Compound 127]"
measurement = 6.18

[[record]]
compound = "CCn1cc(-c2cccc(C(NC(=O)c3ccc(Cl)cc3Cl)C3(O)CCC(F)(F)CC3)c2)cn1 (centres unmarked)"
measurement = 5.89

[[record]]
compound = "O=C(NC(c1cccc(-c2cccnc2)c1)C1(O)CCCC1)c1cccc(C(F)(F)F)c1Cl (centres unmarked)"
measurement = 6.44

[[record]]
compound = "O=C(NC(c1cncc(Cl)c1)[C@]1(O)CC[C@@H](F)CC1)c1nccc(C(F)(F)F)c1Cl (single isomer, unassigned) [Compound 242]"
measurement = 6.62

[[record]]
compound = "O=C(NC(c1cc(Cl)ccc1Cl)C1(O)CCCC1)c1nccc(C(F)(F)F)c1Cl (single isomer, unassigned) [Compound 114]"
measurement = 7.19

[[record]]
compound = "O=C(NC(c1cccc(-c2ccccn2)c1)C1(O)CCC(F)(F)CC1)c1ccnc(C(F)(F)F)c1Cl (single isomer, unassigned)"
measurement = 6.70


a = O=C(NC(c1ccccc1Br)C1(O)CCCC1)c1nccc(C(F)(F)F)c1Cl (centres unmarked)
b = O=C(NC(c1cc(Cl)ccn1)C1(O)CCC(F)(F)CC1)c1nccc(C(F)(F)F)c1Cl (single isomer, unassigned)
c = N#Cc1ccc(-c2cccc(C(NC(=O)c3cccc(C(F)(F)F)c3Cl)C3(O)CCCC3)c2)cc1 (centres unmarked)
d = O=C(NC(c1cccc(Cl)c1)C1(O)CCCCC1)c1nccc(C(F)(F)F)c1Cl (single isomer, unassigned) [Compound 230]
e = O=C(NC(c1cccc(F)c1)C1(O)CCCC1)c1nccc(C(F)(F)F)c1Cl (centres unmarked) [Compound 40]
Asked: Sort ascending by pIC50. Please write the labels in the order that was asked for.
Given back: d, c, b, e, a
(d: 5.55, c: 6.06, b: 6.57, e: 6.96, a: 7.22)

----------
Test System: human type 1 glycine transporter (GlyT1) (Homo sapiens, UniProt P48067)
Construct: T98G cells (glioma cells) expressing human type 1 glycine transporter (GlyT1) were used
Test Method Notes: Glycine uptake inhibition experiment ([3H]glycine uptake)
Type: cell-based
Assay Context: GlyT1
Readout: IC50 (µM)

[[record]]
compound = "Cc1cccc(C(NC(=O)c2nccc(C(F)(F)F)c2Cl)C2(O)CCCC2)c1 (single isomer, unassigned) [Compound 56]"
measurement = 0.24


A = O=C(NC(c1cccc(F)c1Cl)[C@]1(O)CC[C@@H](F)CC1)c1ccccc1C(F)(F)F (single isomer, unassigned)
B = O=C(NC(c1cc(Cl)ccc1Cl)C1(O)CCC(F)(F)CC1)c1nccc(C(F)(F)F)c1Cl (single isomer, unassigned) [Compound 234]
Asked: In terms of reported IC50, does A or B have the smaller number? I would appreciate it if you answered with the label of your choice.
Given back: B
(B: 0.28 µM, A: 1.6 µM)

----------
Test System: human type 1 glycine transporter (GlyT1) (Homo sapiens, UniProt P48067)
Construct: T98G cells (glioma cells) expressing human type 1 glycine transporter (GlyT1) were used
Test Method Notes: Glycine uptake inhibition experiment ([3H]glycine uptake)
Format: cell-based
Assay Context: GlyT1
Readout: IC50 (nM)

1 = CCn1cc(-c2cccc(C(NC(=O)c3cccc(C(F)(F)F)c3Cl)C3(O)CCCC3)c2)cn1 (stereo not shown) [Compound 1]
2 = O=C(N[C@@H](c1cccc(Cl)c1)[C@]1(O)CC[C@@H](F)CC1)c1cc(C(F)(F)F)ncc1Cl [Compound 227]
3 = O=C(NC(c1cccc(F)c1Cl)[C@]1(O)CC[C@@H](F)CC1)c1ccc(Cl)cc1Cl (single isomer, unassigned) [Compound 264]
Asked: Rank the 3 compounds shown above by IC50, smallest number first. Please write the labels in the order that was asked for.
Given back: 1, 2, 3

----------
Test System: human type 1 glycine transporter (GlyT1) (Homo sapiens, UniProt P48067)
Construct: T98G cells (glioma cells) expressing human type 1 glycine transporter (GlyT1) were used
Sequence (P48067 1-706): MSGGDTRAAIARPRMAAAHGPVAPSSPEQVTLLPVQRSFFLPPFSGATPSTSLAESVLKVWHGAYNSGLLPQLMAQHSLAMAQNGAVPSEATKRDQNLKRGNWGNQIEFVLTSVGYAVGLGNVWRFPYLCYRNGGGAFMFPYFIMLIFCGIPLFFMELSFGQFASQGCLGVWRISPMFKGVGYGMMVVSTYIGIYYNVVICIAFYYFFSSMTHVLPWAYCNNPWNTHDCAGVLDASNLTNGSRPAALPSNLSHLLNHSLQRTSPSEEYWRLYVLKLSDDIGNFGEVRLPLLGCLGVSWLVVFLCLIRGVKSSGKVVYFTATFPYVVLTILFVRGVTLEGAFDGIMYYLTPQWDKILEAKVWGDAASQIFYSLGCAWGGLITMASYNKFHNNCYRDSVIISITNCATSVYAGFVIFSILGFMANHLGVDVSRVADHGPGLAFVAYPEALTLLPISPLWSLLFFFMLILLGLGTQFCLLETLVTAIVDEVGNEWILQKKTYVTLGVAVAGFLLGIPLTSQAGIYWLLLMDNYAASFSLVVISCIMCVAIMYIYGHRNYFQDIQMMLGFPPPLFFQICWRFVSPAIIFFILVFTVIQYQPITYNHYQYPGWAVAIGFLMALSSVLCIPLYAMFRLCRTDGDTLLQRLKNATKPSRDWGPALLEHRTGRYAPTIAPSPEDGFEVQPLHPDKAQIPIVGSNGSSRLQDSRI
Test Method Notes: Glycine uptake inhibition experiment ([3H]glycine uptake)
Format: cell-based
Assay Context: GlyT1
pIC50: −log10 of the molar value.
Readout: pIC50

[[record]]
molecule = "O=C(NC(c1cccc(F)c1Cl)[C@]1(O)CC[C@@H](F)CC1)c1cnccc1Cl (single isomer, unassigned)"
readout = "pIC50"
measurement = 5.72

[[record]]
molecule = "O=C(NC(c1cc(Cl)ccn1)C1(O)CCC(F)(F)CC1)c1cccc(C(F)(F)F)c1Cl (single isomer, unassigned)"
readout = "pIC50"
measurement = 6.82

[[record]]
molecule = "CCn1cc(-c2cccc(C(NC(=O)c3cccc(Cl)c3Cl)C3(O)CCC(F)(F)CC3)c2)cn1 (single isomer, unassigned) [Compound 145]"
readout = "pIC50"
measurement = 6.17

[[record]]
molecule = "CCOc1cccc(C(NC(=O)c2nccc(C(F)(F)F)c2Cl)C2(O)CCCC2)c1 (stereo not drawn)"
readout = "pIC50"
measurement = 6.52


1 = Cc1ccc(-n2nccn2)c(C(=O)NC(c2cccc(F)c2Cl)[C@]2(O)CC[C@@H](F)CC2)n1 (single isomer, unassigned)
2 = O=C(NC(c1cccc(Cl)n1)[C@]1(O)CC[C@@H](F)CC1)c1nccc(C(F)(F)F)c1Cl (single isomer, unassigned)
Asked: Of the two listed items, which has the higher pIC50? First: 1 Second: 2 I would appreciate it if you answered with the label of your choice.
Given back: 2
